Parameter refractive index: see the listing below.
Assay: refractive index (Na D-line) (dimensionless)
Conditions: 298.15 K; 101.33 kPa; Liquid; Standard Abbe refractometry
Give the value as a plain number.

compound	refractive index
CCC(C)O (stereo not given)	1.39515
CCC(C)=O	1.37631
COC(=O)CCCCC(=O)OC [dimethyl 1,6-hexanedioate]	1.42636
CCCCO	1.3973

Request: Quote refractive index reported for COC(=O)c1ccccc1C(=O)OC [dimethyl 1,2-benzenedicarboxylate] please.
Response: 1.51354

###

Assay: refractive index (Na D-line) (dimensionless)
Settings: 318.15 K; 101.33 kPa; Liquid; Standard Abbe refractometry
± gives the expanded uncertainty stated by the source.
valueKind: refractive index

molecule	valueKind	valueMeasured
CCCCO	refractive index	1.38901 ± 0.00036

Request: Quote refractive index reported for COC(=O)c1ccccc1C(=O)OC [dimethyl 1,2-benzenedicarboxylate] please.
Response: 1.50524 ± 0.0004

Request: Quote refractive index reported for CCC(C)=O please.
Response: 1.36565 ± 0.00036

Request: Quote refractive index reported for CCC(C)O (stereo not given) please.
Response: 1.38596 ± 0.0004

Request: Quote refractive index reported for COC(=O)CCCCC(=O)OC [dimethyl 1,6-hexanedioate] please.
Response: 1.41819 ± 0.0004

###

Parameter refractive index: see the listing below.
Test: refractive index (Na D-line) (dimensionless)
Settings: 293.15 K; 101.33 kPa; Liquid; Standard Abbe refractometry
Give the value as a plain number.

molecule	refractive index
CCCCO [butan-1-ol]	1.39932

Request: Quote refractive index reported for COC(=O)CCCCC(=O)OC [dimethyl 1,6-hexanedioate] please.
Response: 1.42842

Request: Quote refractive index reported for CCC(C)=O [butanone] please.
Response: 1.37892

Request: Quote refractive index reported for COC(=O)c1ccccc1C(=O)OC [dimethyl 1,2-benzenedicarboxylate] please.
Response: 1.51565

Request: Quote refractive index reported for CCC(C)O (stereo not given) [butan-2-ol] please.
Response: 1.39736

###

Parameter refractive index: see the listing below.
Assay: refractive index (Na D-line) (dimensionless)
Details: 313.15 K; 101.33 kPa; Liquid; Standard Abbe refractometry
Numbers after ± are expanded uncertainties.

Solved entries (count: 2):
compound	refractive index
CCCCO	1.3911 ± 0.00036
COC(=O)c1ccccc1C(=O)OC [dimethyl 1,2-benzenedicarboxylate]	1.50736 ± 0.0004

Request: Quote refractive index reported for CCC(C)O (stereo not given) please.
Response: 1.38832 ± 0.0004

Request: Quote refractive index reported for CCC(C)=O please.
Response: 1.36834 ± 0.00036

Request: Quote refractive index reported for COC(=O)CCCCC(=O)OC [dimethyl 1,6-hexanedioate] please.
Response: 1.42017 ± 0.0004

###

Details: 323.15 K; 101 kPa; Liquid; Vibrating tube method
Parameter mass density: see the listing below.
Please reply with the bare figure in kg/m3 and do not write the unit itself.

Request: Quote mass density reported for CCCCO please.
Response: 786.238

Request: Quote mass density reported for COC(=O)c1ccccc1C(=O)OC [dimethyl 1,2-benzenedicarboxylate] please.
Response: 1163.67

Request: Quote mass density reported for CCC(C)=O please.
Response: 773.047

Request: Quote mass density reported for CCC(C)O (stereo not given) please.
Response: 780.515

Request: Quote mass density reported for COC(=O)CCCCC(=O)OC [dimethyl 1,6-hexanedioate] please.
Response: 1032.64
